Molecular target: TYK2 (Homo sapiens)
Test: TYK2 degradation MSD assay in EBV-B cells
Format: cell-based
Design: endogenous in cells; host or cells: EBV-B cells
Conditions: 4 to 24 hours incubation, read-out: TYK2 MSD DC50 rating in EBV-B
VALUE_KIND: DC50

Some solved entries appear below for comparison.
{"columns": ["COMPOUND", "TESTED_TARGET", "DC50"],
 "data": [
  ["CNc1cc(Nc2cccn(-c3ccc(C(=O)N4CC5(CN(CCC#Cc6ccc7c(c6)n(C)c(=O)n7C6CCC(=O)NC6=O)CCO5)C4)cn3)c2=O)nn2c(C(=O)N[C@@H]3C[C@@H]3F)cnc12 (stereo partly shown) [Example K420]", "TYK2 (Homo sapiens)", "> 100 nM"],
  ["CNc1cc(Nc2cccc(-c3ccc(CN4CCN(c5ccc(-c6ccc7c(c6)n(C)c(=O)n7C6CCC(=O)NC6=O)cc5)CC4)cn3)c2)nn2c(C(=O)NC3CC3OC)cnc12 (stereo not shown) [Example K482]", "TYK2 (Homo sapiens)", "> 100 nM"],
  ["CNc1cc(Nc2cccc(CN3CCN(c4ccc(-c5ccc6c(c5)n(C)c(=O)n6C5CCC(=O)NC5=O)cc4)CC3)c2Cl)nn2c(C(=O)N[C@@H]3C[C@@H]3F)cnc12 (stereo partly shown) [Example K564]", "TYK2 (Homo sapiens)", "> 100 nM"],
  ["CCNC(=O)c1cnc(Nc2ccc(C(=O)N(C)C3CCN(c4cccc5c4n(C)c(=O)n5C4CCC(=O)NC4=O)CC3)cn2)cc1Nc1cccc(-c2ncc(F)cn2)c1OC (stereo not shown) [Example K169]", "TYK2 (Homo sapiens)", "1 to 10 nM"],
  ["CNc1cc(Nc2cccn(-c3cc(C(=O)NCCCCCCCCc4ccc5c(c4)n(C)c(=O)n5C4CCC(=O)NC4=O)ccn3)c2=O)nn2c(C(=O)N[C@@H]3C[C@@H]3F)cnc12 (stereo partly shown) [Example K231]", "TYK2 (Homo sapiens)", "> 100 nM"],
  ["CNc1cc(Nc2cccn(-c3ccc(C(=O)NCc4ccc(N5CCC(N6CCC(c7ccc8c(c7)n(C)c(=O)n8C7CCC(=O)NC7=O)C6)CC5)cc4)cn3)c2=O)nn2c(C(=O)N[C@@H]3C[C@@H]3F)cnc12 (stereo partly shown) [Example K370]", "TYK2 (Homo sapiens)", "< 1 nM"]
]}

Returns the measured DC50 for the input compound. Input: CNc1cc(Nc2cccc(CN(C)C3CCN(c4ccc5c(c4)n(C)c(=O)n5C4CCC(=O)NC4=O)CC3)c2)nn2c(C(=O)NC3CC3)cnc12 (stereo not shown) [Example K593]
> 100 nM

DC50 lookup needed for CNC(=O)c1cnc(Nc2ccc(CN3CCC(N(C)c4ccc5c(c4)n(C)c(=O)n5C4CCC(=O)NC4=O)CC3)cn2)cc1Nc1cccc(-c2ncc(F)cn2)c1OC (stereo not shown) [Example K175] , thanks.
< 1 nM

Dear colleague, I am looking for the recorded DC50 of the following compound: CNC(=O)c1cnc(Nc2ccc(C(=O)NCCCCCCc3ccc4c(c3)n(C)c(=O)n4C3CCC(=O)NC3=O)cn2)cc1Nc1cccc(-c2ncc(F)cn2)c1OC (stereo not shown) [Example K110]
> 100 nM

Quick one: DC50 for CNc1cc(Nc2cccc(C(=O)NCCCCCCc3cccc4c3n(C)c(=O)n4C3CCC(=O)NC3=O)c2)nn2c(C(=O)N[C@@H]3C[C@@H]3F)cnc12 (stereo partly shown) [Example K250] ?
> 100 nM

###

Molecular target: TYK2 (Homo sapiens, UniProt P29597)
Sequence (P29597 whole entry): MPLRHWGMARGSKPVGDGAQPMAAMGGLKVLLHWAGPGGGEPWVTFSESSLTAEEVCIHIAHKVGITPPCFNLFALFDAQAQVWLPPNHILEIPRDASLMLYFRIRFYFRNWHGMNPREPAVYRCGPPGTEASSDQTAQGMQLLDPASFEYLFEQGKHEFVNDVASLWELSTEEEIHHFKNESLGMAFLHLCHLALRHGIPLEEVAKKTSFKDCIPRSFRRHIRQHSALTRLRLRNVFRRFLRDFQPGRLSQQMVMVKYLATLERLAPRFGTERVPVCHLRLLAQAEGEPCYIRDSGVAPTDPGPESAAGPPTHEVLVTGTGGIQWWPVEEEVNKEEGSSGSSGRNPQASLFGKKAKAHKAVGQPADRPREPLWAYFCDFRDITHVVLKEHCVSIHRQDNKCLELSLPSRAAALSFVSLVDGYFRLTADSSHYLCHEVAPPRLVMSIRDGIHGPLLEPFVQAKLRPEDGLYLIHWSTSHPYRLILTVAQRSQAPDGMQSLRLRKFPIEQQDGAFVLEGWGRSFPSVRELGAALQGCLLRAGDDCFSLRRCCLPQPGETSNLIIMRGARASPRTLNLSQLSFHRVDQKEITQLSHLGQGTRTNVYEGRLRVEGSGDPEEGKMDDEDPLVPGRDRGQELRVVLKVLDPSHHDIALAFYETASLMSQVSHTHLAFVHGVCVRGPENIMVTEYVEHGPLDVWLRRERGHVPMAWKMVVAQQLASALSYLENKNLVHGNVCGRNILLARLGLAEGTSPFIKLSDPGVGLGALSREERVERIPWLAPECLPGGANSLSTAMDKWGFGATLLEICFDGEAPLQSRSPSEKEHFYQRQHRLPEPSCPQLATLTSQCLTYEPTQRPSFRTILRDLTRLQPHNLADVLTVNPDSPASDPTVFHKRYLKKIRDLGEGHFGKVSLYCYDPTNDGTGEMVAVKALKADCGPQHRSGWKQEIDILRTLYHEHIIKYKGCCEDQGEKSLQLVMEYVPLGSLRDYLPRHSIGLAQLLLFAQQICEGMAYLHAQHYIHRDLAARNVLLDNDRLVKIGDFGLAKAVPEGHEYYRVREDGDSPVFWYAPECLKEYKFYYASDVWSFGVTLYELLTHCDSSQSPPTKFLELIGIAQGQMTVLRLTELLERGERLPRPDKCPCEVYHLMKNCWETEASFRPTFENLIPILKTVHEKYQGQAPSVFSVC
Experiment: TYK2 degradation MSD assay in OCI-LY10 cells
Format: cell-based
Parameters: endogenous in cells; host or cells: EBV-B cells
Conditions: 4 to 24 hours incubation, read-out: TYK2 MSD DC50 rating in OCI-LY10
VALUE_KIND: DC50

The following compounds have reported results that may help.
{"columns": ["COMPOUND", "MEASUREMENT"],
 "data": [
  ["CNC(=O)c1cnc(NC(=O)NCCCCCCCCCc2ccc3c(c2)n(C)c(=O)n3C2CCC(=O)NC2=O)cc1Nc1cccc(-c2ncc(F)cn2)c1OC (centres unmarked)", "> 100 nM"],
  ["CNc1cc(Nc2cccn(-c3ccc(C(=O)NCCOCCOCCOCCOCCc4cccc5c4n(C)c(=O)n5C4CCC(=O)NC4=O)cn3)c2=O)nn2c(C(=O)N[C@@H]3C[C@@H]3F)cnc12 (some centres unmarked)", "> 100 nM"]
]}

So what's the measured DC50 for this one? CNc1cc(Nc2cccn(-c3ccc(C(=O)N4CCC(CN(C)C5CCN(c6ccc7c(c6)n(C)c(=O)n7C6CCC(=O)NC6=O)CC5)C4)cn3)c2=O)nn2c(C(=O)N[C@@H]3C[C@@H]3F)cnc12 (some centres unmarked)
< 1 nM

Given CCc1nn(-c2cccc(F)c2OC)c2cc(Nc3ccc(CN(C)C4CCN(c5cccc6c5n(C)c(=O)n6C5CCC(=O)NC5=O)CC4)cn3)ncc12 (centres unmarked) , state its recorded DC50.
> 100 nM

Quick one: DC50 for CNc1cc(-c2ccc(C3CCN(CC4CCN(c5ccc(-c6ccc7c(c6)n(C)c(=O)n7C6CCC(=O)NC6=O)cc5)CC4)CC3)cc2)c2n3c(cnc13)C(=O)N(C1CC1)C2 (centres unmarked) ?
> 100 nM

Sample CNc1cc(Nc2cccn(-c3ccc(C(=O)N4CCC(n5cc(-c6ccc7c(c6)n(C)c(=O)n7C6CCC(=O)NC6=O)cn5)CC4)cn3)c2=O)nn2c(C(=O)N[C@@H]3C[C@@H]3F)cnc12 (some centres unmarked) — what was its DC50?
> 100 nM

Look up DC50: CNC(=O)c1cnc(Nc2ccc(C(=O)NCCCCc3cccc4c3n(C)c(=O)n4C3CCC(=O)NC3=O)cn2)cc1Nc1ccccc1 (centres unmarked)
1 to 10 nM

// DC50 lookup, key: CNc1cc(Nc2cccc(CN3CC(N4CCN(c5ccc6c(c5)n(C)c(=O)n6C5CCC(=O)NC5=O)CC4)C3)c2)nn2c(C(=O)NC3CC3)cnc12 (centres unmarked)
1 to 10 nM

###

Molecular target: TYK2 (Homo sapiens)
Experiment: TYK2 degradation MSD assay in EBV-B cells
Assay type: cell-based
Design: endogenous in cells; host or cells: EBV-B cells
Conditions: 4 to 24 hours incubation, read-out: TYK2 MSD DC50 rating in EBV-B
Property: DC50; scope: individual molecules

I have this molecule here, CNc1cc(Nc2cccc(-c3ccc(CN4CCN(c5ccc(-c6ccc7c(c6)n(C)c(=O)n7C6CCC(=O)NC6=O)cc5)CC4)cn3)c2OC)nn2c(C(=O)NC(C)C)cnc12 (stereo not drawn) [Example K528] , and I need its recorded DC50.
> 100 nM

Consider the molecule CNc1cc(N2CCc3c(C4CCN(CC5CCN(c6ccc(-c7ccc8c(c7)n(C)c(=O)n8C7CCC(=O)NC7=O)cc6)CC5)CC4)cccc32)nn2c(C(=O)N[C@@H]3C[C@@H]3F)cnc12 (mixture of isomers) [Example K536] and give its measured DC50.
> 100 nM

Entry CNc1cc(Nc2cccc(-c3ccc(CN4CC5(CCN(C(=O)c6ccc(Cl)c(N7CCC(=O)NC7=O)c6)CC5)C4)cn3)c2)nn2c(C(=O)N[C@@H]3C[C@@H]3F)cnc12 [Example K506] : reported DC50 = ?
10 to 100 nM

###

Target: TYK2 (Homo sapiens, UniProt P29597)
Test: TYK2 degradation MSD assay in EBV-B cells
Format: cell-based
Set-up: endogenous in cells; host or cells: EBV-B cells
Conditions: 4 to 24 hours incubation, read-out: TYK2 MSD DC50 rating in EBV-B
VALUE_KIND: DC50

Quick one: DC50 for Cn1c(=O)n(C2CCC(=O)NC2=O)c2cccc(C#CCN3CCN(Cc4ccc(-c5cccc(Nc6ccc7ncc(C(=O)NC8CC8)n7n6)c5)nc4)CC3)c21 (centres unmarked) ?
> 100 nM

Entry CNc1cc(Nc2cccn(C3CCN(C(=O)COCCOCCOCCOCCc4ccc5c(c4)n(C)c(=O)n5C4CCC(=O)NC4=O)CC3)c2=O)nn2c(C(=O)N[C@@H]3C[C@@H]3F)cnc12 (some centres unmarked) has what DC50?
> 100 nM

Can you share its DC50? I mean this molecule: CNc1cc(N2CCCc3c(-c4ccc(CC5CCC(c6ccc(-c7ccc8c(c7)n(C)c(=O)n8C7CCC(=O)NC7=O)cc6)CC5)cn4)cccc32)nn2c(C(=O)N[C@@H]3C[C@@H]3F)cnc12 (some centres unmarked)
> 100 nM

# get_value(readout='DC50', item= CNc1cc(N2CCc3c(N4CCC(CN5CCC(C#Cc6cccc7c6n(C)c(=O)n7C6CCC(=O)NC6=O)CC5)CC4)cccc32)nn2c(C(=O)N[C@@H]3C[C@@H]3F)cnc12 (some centres unmarked) )
> 100 nM

Any idea what its DC50 is? The molecule is CNc1cc(N2CCc3c(-c4cc(N5CCN([C@H]6CC[C@H](c7ccc8c(c7)n(C)c(=O)n8C7CCC(=O)NC7=O)CC6)CC5)ccn4)cccc32)nn2c(C(=O)NC3CC3F)cnc12 (some centres unmarked)
> 100 nM
